- targetEntity: human TRPC6 (Homo sapiens)
- Sequence (Q9Y210 whole entry): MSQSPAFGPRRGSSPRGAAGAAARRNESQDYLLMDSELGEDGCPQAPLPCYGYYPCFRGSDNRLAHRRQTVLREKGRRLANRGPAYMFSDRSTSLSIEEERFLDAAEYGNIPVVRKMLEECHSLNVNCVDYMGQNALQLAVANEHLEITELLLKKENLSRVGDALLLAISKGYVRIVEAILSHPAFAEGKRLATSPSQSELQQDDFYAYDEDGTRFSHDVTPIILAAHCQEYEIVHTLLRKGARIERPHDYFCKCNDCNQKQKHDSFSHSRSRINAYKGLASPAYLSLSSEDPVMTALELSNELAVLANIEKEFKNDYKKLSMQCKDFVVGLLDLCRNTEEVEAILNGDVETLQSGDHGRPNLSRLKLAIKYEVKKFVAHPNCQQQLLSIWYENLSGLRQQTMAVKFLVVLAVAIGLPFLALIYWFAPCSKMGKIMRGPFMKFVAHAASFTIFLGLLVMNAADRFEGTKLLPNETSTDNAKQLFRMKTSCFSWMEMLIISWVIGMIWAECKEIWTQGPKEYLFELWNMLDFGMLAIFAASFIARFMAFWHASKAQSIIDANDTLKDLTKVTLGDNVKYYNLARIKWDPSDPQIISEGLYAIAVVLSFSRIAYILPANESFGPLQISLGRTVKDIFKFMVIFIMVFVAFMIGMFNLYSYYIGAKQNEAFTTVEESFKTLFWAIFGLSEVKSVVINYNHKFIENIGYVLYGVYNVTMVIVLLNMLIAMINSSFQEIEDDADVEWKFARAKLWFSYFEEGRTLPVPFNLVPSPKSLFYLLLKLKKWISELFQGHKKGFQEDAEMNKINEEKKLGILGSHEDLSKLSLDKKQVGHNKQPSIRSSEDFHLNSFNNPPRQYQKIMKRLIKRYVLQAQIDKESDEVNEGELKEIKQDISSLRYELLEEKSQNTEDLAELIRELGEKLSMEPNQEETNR
- measurementProtocol: TRPC6 calcium flux assay (FLIPR, OAG-stimulated calcium influx)
- conditionParameters: HEK293 cells stably transfected with human TRPC6, read-out: hTRPC6 Potency
propertyName: pIC50
pIC50 here is simply -log10 of the concentration when that concentration is written in mol/L.

Consider the worked cases shown below.
CC(C#N)CN(C)C(=O)Cn1c(N2CC[C@@H](F)[C@H](N)C2)nc2cc(F)c(F)cc21 (mixture of isomers) = 7.12
NC(=O)c1ccc(Cn2c(N3CC[C@@H](F)[C@H](N)C3)nc3ccccc32)nc1 = 7.28

Fill in: human TRPC6 (Homo sapiens) pIC50 for N[C@@H]1CN(c2nc3ccccc3n2Cc2ncc(F)cn2)CC[C@H]1F = 7.89

* * *

pIC50: recorded values
- targetEntity: human TRPC6 (Homo sapiens)
- measurementProtocol: TRPC6 calcium flux assay (FLIPR, OAG-stimulated calcium influx)
- conditionParameters: HEK293 cells stably transfected with human TRPC6, read-out: hTRPC6 Potency
Structures can show the parent of a compound that is named as a salt.
pIC50 here is simply -log10 of the concentration when that concentration is written in mol/L.

Consider the worked cases shown below.
N#Cc1ccc(Cn2c(N3CC[C@@H](F)[C@H](N)C3)nc3cc(Cl)c(C(F)(F)F)cc32)nc1 = 9.31
N#Cc1cnc(Cn2c(N3CC[C@@H](F)[C@H](N)C3)nc3cc(F)cc(F)c32)cn1 = 8.06

Noted for CC1CCN1C(=O)Cn1c(N2CC[C@@H](F)[C@H](N)C2)nc2ccc(F)cc21 (stereo partly shown) : its pIC50 reads 7.06

Noted for N#Cc1ccc2c(c1)nc(N1CC[C@@H](F)[C@H](N)C1)n2Cc1ccc(F)cn1 : its pIC50 reads 6.85

Noted for N#Cc1ccc(Cn2c(N3CC[C@@H](F)[C@H](N)C3)nc3c(Cl)cccc32)nc1 : its pIC50 reads 8.78

Noted for N#Cc1ccc(Cn2c(N3C[C@@H]4C[C@]4(CN)C3)nc3ccccc32)nc1 [Example 75, hydrochloride] : its pIC50 reads 7.09

Noted for CN(C)C(=O)Cn1c(N2CC[C@@H](F)[C@H](N)C2)nc2ccc(F)cc21 : its pIC50 reads 7.45

Noted for N#Cc1ccc(Cn2c(N3CC[C@@H](F)[C@H](N)C3)nc3ccc(C(F)(F)F)nc32)nc1 : its pIC50 reads 8.82

Noted for C[C@@H](c1ccc(C#N)cc1)n1c(N2CC[C@@H](F)[C@H](N)C2)nc2ccccc21 [Example 320, hydrochloride] : its pIC50 reads 7.92

Noted for N[C@@H]1CN(c2nc3cc(F)c(F)cc3n2Cc2ccc(Cl)cc2F)CC[C@H]1F : its pIC50 reads 8.19

* * *

IC50: recorded values
- targetEntity: human TRPC6 (Homo sapiens)
- measurementProtocol: TRPC6 calcium flux assay (FLIPR, OAG-stimulated calcium influx)
- conditionParameters: HEK293 cells stably transfected with human TRPC6, read-out: hTRPC6 Potency
State just the number; it will be interpreted in nM.

Consider the worked cases shown below.
CN(C(=O)Cn1c(N2CC[C@@H](F)[C@H](N)C2)nc2cc(F)c(F)cc21)C1CCS(=O)(=O)C1 (mixture of isomers) = 1780
CN(C)C(=O)Cn1c(N2CC[C@@H](F)[C@H](N)C2)nc2cc(C(F)(F)F)ccc21 = 1730
N[C@@H]1CN(c2nc3cc(C(F)(F)F)ccc3n2CC(=O)N2CCOCC2)CC[C@H]1F = 398

Noted for N[C@@H]1CN(c2nc3cc(F)c(F)cc3n2CC(=O)N2CCC2)CC[C@H]1F : its IC50 reads 23.8

Noted for CC(c1ncc(Cl)cn1)n1c(N2CC[C@@H](F)[C@H](N)C2)nc2cc(F)c(F)cc21 (stereo in doubt) : its IC50 reads 112

Noted for N[C@@H]1CN(c2nc3cc(F)cc(F)c3n2Cc2ncc(F)cn2)CC[C@H]1F : its IC50 reads 68.9

Noted for N[C@@H]1CN(c2nc3cc(F)c(F)cc3n2Cc2ccc(F)cn2)CCC1(F)F : its IC50 reads 376

Noted for CN(CC(F)(F)F)C(=O)Cn1c(N2CCC(F)(F)[C@H](N)C2)nc2cc(F)ccc21 : its IC50 reads 2740
